protocol: inhibitors of E-selectin induction by TNFa, primary screen, imaging, HUVEC, immunofluorescence, MLSMR starter and 10KST1 sets (AID 487);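 note: signal is fraction of cell area covered by stained E-selectin grains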
assay_setup: HUVEC TNFalpha-induced E-selectin immunofluorescence imaging, at 2 µM; stronger effect = higher value
quantity: inhibition (%)
Value expressed in %; do not type the unit.

CC(C)N(C(=O)CSc1nnc(-c2cc3ccccc3cc2O)n1Cc1ccco1)C(C)C
4.9
Cc1sc(-n2c(C)ccc2C)c(C#N)c1C
-11.7
Cc1nc2c(o1)CCc1ccccc1C2N1CCN(C)CC1 (stereo unspecified)
-37.3
COc1cc(C)c(N)cc1C(C)C
-41.7
CCN(CC)CCCNC(=O)c1nn(-c2ccc(OC)cc2OC)c(=O)c2ccccc12
-101
O=C(Nc1cccc2ccccc12)N1CCN(c2ccccc2)CC1
-12.2
CC1(C)NC(=O)N(CCOc2cccc(Cl)c2Cl)C1=O
-35.1
Cc1cc(C)n(S(=O)(=O)/C=C/c2ccccc2)n1
-329
O=C(Oc1cccnc1)c1ccco1
2.1
CC(=O)Nc1ccc(S(=O)(=O)N2CCC(NC(C)=O)(c3cccc(F)c3)CC2)cc1
-10.1

Look up and state reported inhibition for `CCn1c(=O)cc(OCC(=O)NC2CCCCC2)c2ccccc21`
-15.3

Look up and state reported inhibition for `CC(C)OC(=O)c1cc(=O)[nH]c2ccccc12`
-4.6

Look up and state reported inhibition for `O=C(NCCCNC(=O)c1ccccn1)c1ccccn1`
-77.9

Look up and state reported inhibition for `CCc1c(C)c2cc(Cl)c(O)c(CN3CCCCC3)c2oc1=O`
6.3

Look up and state reported inhibition for `COCCCN(Cc1ccccn1)S(=O)(=O)Cc1ccccc1`
10

Look up and state reported inhibition for `O=C(CSc1nnc2ccccn12)NCCN1C(=O)CSC1=O`
-218

Look up and state reported inhibition for `CC(C)c1nnc(SCC(=O)NCc2ccco2)n1C`
21.4

Look up and state reported inhibition for `Cc1ccc(CNc2cc(-c3nn4c(C)nnc4s3)ccc2C)s1`
-76.3

Look up and state reported inhibition for `CCOc1ccc(C(=O)N2CCN(C(=O)c3ccco3)CC2)cc1OCC`
28.1

Look up and state reported inhibition for O=C1CC(c2ccccc2)n2nc(NC(=O)c3ccccn3)nc2N1 (stereo unspecified)
16.2

----------
assayed_system: Voltage-gated potassium channel subunit beta-2 (Rattus norvegicus)
protocol: KvBeta enzyme negative modulators, primary screen, biochemical, NADPH fluorescence (AID 622);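 note: slope of raw intensity against log time taken from 70 to 1610 s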
assay_setup: recombinant KvBeta, 4-cyanobenzaldehyde reduction, at 10 µM, stronger effect = higher value
Listing of recorded fluorescence slope by entry.
Response field accepts a number only; no unit should be typed.

COc1cc(C2CC(=O)NC3=C2C(=O)CC(C)(C)C3)ccc1O (stereo not given)
-0.41
COC(=O)c1ccccc1NC(=O)COc1ccc(S(=O)(=O)N2CCCC2)cc1C
-0.405
O=C1OC2(c3ccccc3)C3CCCC2C13
-0.548
CCCCC(=O)C1CCN(Cc2ccccc2)CC1
-0.469

Shift focus to the following entry.
Look up and state reported fluorescence slope for `CCCCn1c(=O)n(C)c(=O)c2c3c(sc21)COC(C)(C)C3`
-0.447

----------
assayed_system: Voltage-gated potassium channel subunit beta-2 (Rattus norvegicus) (UniProt P62483)
Sequence (P62483 whole entry, looked up): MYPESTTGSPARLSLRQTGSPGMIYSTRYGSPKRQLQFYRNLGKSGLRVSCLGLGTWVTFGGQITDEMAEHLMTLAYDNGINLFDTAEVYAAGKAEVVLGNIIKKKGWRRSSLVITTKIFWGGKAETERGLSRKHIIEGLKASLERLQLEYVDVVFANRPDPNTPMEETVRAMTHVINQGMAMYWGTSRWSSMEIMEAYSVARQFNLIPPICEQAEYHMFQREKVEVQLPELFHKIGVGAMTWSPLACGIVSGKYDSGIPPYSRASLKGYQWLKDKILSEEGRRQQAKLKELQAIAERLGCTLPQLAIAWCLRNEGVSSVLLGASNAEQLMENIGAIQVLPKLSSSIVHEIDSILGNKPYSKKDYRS
protocol: KvBeta positive modulators, primary screen, biochemical, NADPH fluorescence (AID 623);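 note: fluorescence intensity change per second fitted from 20 to 320 s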
assay_setup: Recombinant KvBeta, NADPH fluorescence decrease slope, 10 min; at 10 µM; stronger effect = lower value
quantity: NADPH fluorescence slope
Response field accepts a number only; no unit should be typed.

Below are worked cases with known answers.
CCCCCOc1ccc(C(=O)NCC(=O)NCC(=O)OCC)cc1
-6e-05
O=C(CSc1ncnc2c1cnn2Cc1ccccc1)Nc1ccc2c(c1)OCCO2
-0.00015
COC(=O)c1cc2ccsc2n1Cc1nc(-c2ccc(OC)cc2)oc1C
-2.6e-05
Cc1nc2sc(C(c3ccc(Br)cc3)N3CC(C)OC(C)C3)c(O)n2n1 (stereo not drawn)
-6.3e-05
COc1ccc(C(=O)c2ccc(N3CCOCC3)cc2)c(OC)c1
-6.2e-05

Look up and state reported NADPH fluorescence slope for CCOC(=O)C(C)Sc1nc(-c2cccs2)ccc1C#N (stereo not drawn)
-5.7e-05

Look up and state reported NADPH fluorescence slope for `O=c1c(-c2ccc(Cl)cc2)[n+]([O-])c2ccccc2n1O`
-3.9e-05
